# Tested on: Western Flower Thrips (Frankliniella occidentalis, FRANOC)
# Assay name: Bioassay 3: Western Flower Thrips, cotton leaf disc dip, live WFT counted 3 days after treatment
# Format: in vivo
# Test settings: Frankliniella occidentalis, foliar, 72 h; AI alone 0.0003125 % w/v
Record form. Attribute: pest or weed control at 0.0003125 % strength. Fill in for each entry.
The reply should contain only the number, in %.

Exercise: Give the reported pest or weed control at 0.0003125 % strength for CC1(C)[C@H](C(=O)O[C@H](C#N)c2cccc(Oc3ccccc3)c2)[C@@H]1/C=C(\Cl)C(F)(F)F (racemic) (system: Western Flower Thrips (Frankliniella occidentalis, FRANOC)).
Solution: 7

Exercise: Give the reported pest or weed control at 0.0003125 % strength for O=[N+]([O-])NC1=NCCN1Cc1ccc(Cl)nc1 (system: Western Flower Thrips (Frankliniella occidentalis, FRANOC)).
Solution: 0

Exercise: Give the reported pest or weed control at 0.0003125 % strength for C/C(=N\C#N)N(C)Cc1ccc(Cl)nc1 (system: Western Flower Thrips (Frankliniella occidentalis, FRANOC)).
Solution: 13

Exercise: Give the reported pest or weed control at 0.0003125 % strength for CNC(=O)O/N=C(\SC)C(=O)N(C)C (system: Western Flower Thrips (Frankliniella occidentalis, FRANOC)).
Solution: 0

----------
Record form. Attribute: Average % Control AI. Fill in for each entry.
# Tested on: Sweet Potato Whitefly (Bemisia tabaci, BEMITA)
# Assay name: Bioassay 2: Sweet Potato Whitefly, spray on cotton seedlings at crawler emergence, nymphs counted 7-9 days after treatment
# Assay type: in vivo
# Test settings: AI alone 0.1 (10-5) % w/v
The reply should contain only the number, in %.

Exercise: Give the reported Average % Control AI for Cc1cc(C)c(C2=C(OC(=O)CC(C)(C)C)C3(CCCC3)OC2=O)c(C)c1 (system: Sweet Potato Whitefly (Bemisia tabaci, BEMITA)).
Solution: 0

Exercise: Give the reported Average % Control AI for CC(COc1ccc(Oc2ccccc2)cc1)Oc1ccccn1 (centres unmarked) (system: Sweet Potato Whitefly (Bemisia tabaci, BEMITA)).
Solution: 8

Exercise: Give the reported Average % Control AI for CNC(=O)c1cc(C#N)cc(C)c1NC(=O)c1cc(Br)nn1-c1ncccc1Cl (system: Sweet Potato Whitefly (Bemisia tabaci, BEMITA)).
Solution: 0

Exercise: Give the reported Average % Control AI for CNC(=O)O/N=C(\SC)C(=O)N(C)C (system: Sweet Potato Whitefly (Bemisia tabaci, BEMITA)).
Solution: 0

Exercise: Give the reported Average % Control AI for C[C@]1(COC(=O)C2CC2)[C@@H]2C[C@H](O)[C@@]3(C)Oc4cc(-c5cccnc5)oc(=O)c4[C@H](O)[C@@H]3[C@@]2(C)CC[C@@H]1OC(=O)C1CC1 (system: Sweet Potato Whitefly (Bemisia tabaci, BEMITA)).
Solution: 0
